I'd appreciate it if you could supply IC50 values for the items below.
biological target: Transcriptional activator protein LuxR (Aliivibrio fischeri, UniProt P12746); assay: Inhibition of LuxR-dependent quorum sensing in Vibrio fischeri assessed as reduction of 3-oxo-C6-HSL-induced bioluminescence intensity
Sequence (P12746 whole entry): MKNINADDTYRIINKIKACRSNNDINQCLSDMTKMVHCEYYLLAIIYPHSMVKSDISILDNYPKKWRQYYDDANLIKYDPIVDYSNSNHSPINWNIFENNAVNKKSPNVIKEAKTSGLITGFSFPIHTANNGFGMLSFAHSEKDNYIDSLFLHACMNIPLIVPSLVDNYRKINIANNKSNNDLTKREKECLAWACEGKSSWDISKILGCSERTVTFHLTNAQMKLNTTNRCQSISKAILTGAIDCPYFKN
Give just the number in µM; leave the unit off.

The compound CN1CCC(=C2c3ccccc3Sc3ccccc32)CC1 [PIMETHIXENE] , tested on Transcriptional activator protein LuxR (Aliivibrio fischeri, UniProt P12746), showed IC50 of 56

Readout IC50 for CC(NCCC(c1ccccc1)c1ccccc1)c1ccccc1 (stereo unspecified) [FENDILINE] , test system Transcriptional activator protein LuxR (Aliivibrio fischeri, UniProt P12746), was 91

The recorded IC50 with Transcriptional activator protein LuxR (Aliivibrio fischeri, UniProt P12746) for CN[C@H]1CC[C@@H](c2ccc(Cl)c(Cl)c2)c2ccccc21 [SERTRALINE] was 27

CC/C(=C(\c1ccccc1)c1ccc(OCCN(C)C)cc1)c1ccccc1 [TAMOXIFEN] on Transcriptional activator protein LuxR (Aliivibrio fischeri, UniProt P12746) gives IC50 = 40

IC50 of CC(C)(C)c1ccc(C(O)CCCN2CCC(C(O)(c3ccccc3)c3ccccc3)CC2)cc1 (stereo unspecified) [TERFENADINE] , assay on Transcriptional activator protein LuxR (Aliivibrio fischeri, UniProt P12746), is 92

Record Clc1ccc(C(c2ccc(Cl)cc2)n2cc[n+](CC(OCc3ccc(Cl)cc3Cl)c3ccc(Cl)cc3Cl)c2)cc1 (stereo unspecified) [CALMIDAZOLIUM CHLORIDE] / Transcriptional activator protein LuxR (Aliivibrio fischeri, UniProt P12746), IC50 recorded as 7

meta.source: ChEMBL document CHEMBL1208756
